Target: Factor X (FX), P00742
Sequence (P00742 whole entry, looked up): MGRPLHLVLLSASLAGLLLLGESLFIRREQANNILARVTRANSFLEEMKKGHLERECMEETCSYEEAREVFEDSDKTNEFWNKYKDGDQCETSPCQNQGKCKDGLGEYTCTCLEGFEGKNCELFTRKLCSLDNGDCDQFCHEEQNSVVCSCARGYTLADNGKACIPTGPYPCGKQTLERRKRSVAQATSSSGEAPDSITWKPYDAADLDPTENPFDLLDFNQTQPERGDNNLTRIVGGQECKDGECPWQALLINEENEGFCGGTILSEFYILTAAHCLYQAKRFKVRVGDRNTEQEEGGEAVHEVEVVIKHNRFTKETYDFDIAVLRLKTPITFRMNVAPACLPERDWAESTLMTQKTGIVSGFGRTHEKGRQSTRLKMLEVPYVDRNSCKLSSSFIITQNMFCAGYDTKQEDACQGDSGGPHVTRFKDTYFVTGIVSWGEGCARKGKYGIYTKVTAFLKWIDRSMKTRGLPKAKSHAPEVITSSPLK
measured_metric: kcat (s⁻¹)
Answers are plain numbers, in s⁻¹.

Exercise: State its kcat for this protein: FIXa-Y155F/K247N/N249S/R338E/R403E (protein) chain 1: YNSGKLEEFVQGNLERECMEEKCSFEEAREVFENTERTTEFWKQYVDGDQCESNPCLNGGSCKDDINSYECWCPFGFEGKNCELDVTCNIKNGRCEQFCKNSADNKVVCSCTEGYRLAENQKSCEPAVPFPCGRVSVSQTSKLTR chain 2: VVGGEDAKPGQFPWQVVLNGKVDAFCGGSIVNEKWIVTAAHCVETGVKITVVAGEHNIEETEHTEQNRSVIRIIPHHNYNAAINKYNHDIALLELDEPLVLNSYVTPICIADKEYTNIFLKFGSGYVSGWGRVFHKGRSALVLQYLRVPLVDRATCLESTKFTIYNNMFCAGFHEGGRDSCQGDSGGPHVTEVEGTSFLTGIISWGEECAMKGKYGIYTKVSEYVNWIKEKTKLT
Solution: 5.3

Every entry's value here was drawn from patent US20210230570.
